Test: protein stability index of a GFP-peptide fusion (GPS, HEK-293T) (PSI 1-6); higher = more stable;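 note: 24-mer peptide tiles fused after GFP, lentivirally expressed, FACS-sorted into six equal bins by GFP/DsRed ratio, decoded by Illumina sequencing, PSI is the read-weighted mean bin number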
Conditions: treatment: DMSO; c terminus: a fixed tail appended
Returns one of Condition met or Condition not met; Condition met when protein stability index is >= 3.

[
  {
    "input.sequence": "KGFPGCKLGLHDNHWVPACHSFNR [FBXO34]",
    "category": "Condition not met"
  },
  {
    "input.sequence": "STWLILHHKVYDLTKFLEEHPGGE [CYB5A]",
    "category": "Condition not met"
  },
  {
    "input.sequence": "EEEQDILQRLRENAAHLGDKRRDL [TRIM39]",
    "category": "Condition met"
  },
  {
    "input.sequence": "SFINFFTSVLATLVVFAVLGFKAN [SLC6A17]",
    "category": "Condition met"
  },
  {
    "input.sequence": "LDISDSISESGGLNWKMTLCLLVA [SLC6A17]",
    "category": "Condition not met"
  },
  {
    "input.sequence": "QWWNAVFIMLLIGIVLPVFYLVYF [LYSMD4]",
    "category": "Condition not met"
  },
  {
    "input.sequence": "RSGRLILWEAPPLGAGGGSLLPGA [NEK8]",
    "category": "Condition not met"
  },
  {
    "input.sequence": "ILTRSWEEVSTLNAQIPELKSDLE [CD207]",
    "category": "Condition met"
  },
  {
    "input.sequence": "HNYKEMRQLMKVVNEMCPNITRIY [CPXM2]",
    "category": "Condition not met"
  },
  {
    "input.sequence": "TKGEEISVYVKLAGEREDLWAGSK [MIA2]",
    "category": "Condition met"
  },
  {
    "input.sequence": "LAGTQLLYAFFTRTHGDMHSLVRS [TRIB3]",
    "category": "Condition met"
  },
  {
    "input.sequence": "TEEEDRIICEAHKVLGNRWAEIAK [MYBL2]",
    "category": "Condition met"
  },
  {
    "input.sequence": "LGKTNAKAVSEMRQKIWNNMPKDH [DYNC2LI1]",
    "category": "Condition met"
  }
]
